biological target: AMPA receptor (Rattus norvegicus); experiment: Inhibitory activity against [3H]AMPA binding to rat cortical membranes
We begin with a simple list: items and their reported IC50.
Value expressed in nM; do not type the unit.

The following molecules have reported results that may help.
In [3]: df
Out[3]:
                    structure_smiles_string  unit_spec  readout_number
0  O=C(O)c1cc2cc([N+](=O)[O-])c([N+](=O)[O-])cc2nc1O         nM             150
1  O=[N+]([O-])c1cc2cc(NS(=O)(=O)C(F)(F)F)c(O)nc2cc1[N+](=O)[O-]         nM              90
2      O=c1[nH]c2cc(Cl)c(Cl)cc2cc1P(=O)(O)O         nM             900

Next molecule, please.
Returns the measured IC50 for the input molecule. Input: O=P(O)(O)c1cc2c(Cl)cc(Cl)cc2nc1O 3500

Reference for the values: ChEMBL document CHEMBL1129678
